Strictly below 200 °C in glass transition temperature: fulfilled. Otherwise: not fulfilled.

Q: In plain terms, does *CC(O)CN(*)c1cc(C)c(/N=N/c2ccc(Cl)cc2)c(C)c1 (repeat unit) come in under 200 °C for glass transition temperature?
Ans: fulfilled

Q: Query *c1ccc(OC(=O)c2cc(C(=O)Oc3ccc(C4(*)OC(=O)c5ccccc54)cc3)cc(C(C)(C)C)c2)cc1 (repeat unit) next
Ans: not fulfilled

Q: Same read-out for *c1cccc(C(=O)Nc2ccc(Oc3ccc(C(C)(C)c4ccc(Oc5ccc(NC(=O)c6cccc(N7C(=O)c8ccc(-c9cccc%10c9C(=O)N(*)C%10=O)cc8C7=O)c6)cc5)cc4)cc3)cc2)c1 (repeat unit) ?
Ans: not fulfilled

Q: And what about the molecule *CC(*)CCCCCCC (repeat unit) ?
Ans: fulfilled

Q: Moving on to the next molecule: *c1ccc(-c2nc3ccc(Oc4ccc(Oc5ccc(P(=O)(c6ccccc6)c6ccc(Oc7ccc(Oc8ccc9nc(*)c(-c%10ccccc%10)nc9c8)cc7)cc6)cc5)cc4)cc3nc2-c2ccccc2)cc1 (repeat unit)
Ans: not fulfilled

Q: Next up: *CC(*)SC (repeat unit) [Poly(vinyl methyl sulfide) ]
Ans: fulfilled

Q: Now consider *CCCC(*)(C)C (repeat unit) .
Ans: fulfilled

Q: Quick one: *Cc1ccc(C(C)(CCC)c2ccc(Cn3c(=O)c4cc5c(=O)n(*)c(=O)c5cc4c3=O)o2)o1 (repeat unit)
Ans: fulfilled

Q: What do you have for *Oc1ccc(C(C)(C)c2ccc(Oc3ccc(C(=O)c4cccc(C(=O)c5ccc(*)cc5)c4)cc3)cc2)cc1 (repeat unit) ?
Ans: fulfilled

Q: Item: *OC(CCl)C(*)CCl (repeat unit)
Ans: fulfilled

Q: Proceed to *c1ccc(C2(c3ccc(-c4cc(-c5ccccc5)c5cc(C6(c7ccc8nc(*)cc(-c9ccccc9)c8c7)c7ccccc7C(=O)c7ccccc76)ccc5n4)cc3)c3ccccc3-c3ccccc32)cc1 (repeat unit)
Ans: not fulfilled

Q: Also need *CCCCOC(=O)OCCCCCCOC(=O)OCCCCn1c(=O)c2cc3c(=O)n(*)c(=O)c3cc2c1=O (repeat unit) , thanks.
Ans: fulfilled

Q: And for *CCCNC(=O)CCCCC(=O)NCCCO* (repeat unit) ?
Ans: fulfilled

Q: Another: *c1ccc(OC(=O)c2cccc(C(=O)Oc3ccc(C4(*)C(=O)Nc5c(Cl)cc(Cl)cc54)cc3)c2)cc1 (repeat unit)
Ans: not fulfilled

Q: And *CC(*)(C)C(=O)OCCCCCCCCCCn1c2ccccc2c2cc(/N=N/c3ccc([N+](=O)[O-])cc3[N+](=O)[O-])ccc21 (repeat unit) ?
Ans: fulfilled

Q: Input *CCCOC(=O)c1ccc(C(=O)O*)cc1 (repeat unit) [Poly(trimethylene terephthalate)]
Ans: fulfilled

Q: Now consider *Oc1ccc(C(c2ccc(OC(*)=S)cc2)c2cccc3ccccc23)cc1 (repeat unit) and answer again.
Ans: fulfilled

Q: Note, next up: *Nc1cc(NC(=O)c2ccc(C(*)=O)cc2)cc(C(=O)Oc2ccc(-c3ccccc3)cc2)c1 (repeat unit)
Ans: fulfilled

Q: Now try *CC(*)(C)C(=O)OCCCN(C)c1ccc(N(C)C)cc1 (repeat unit) .
Ans: fulfilled

Q: Same thing, different molecule: *NC(CCC(=O)OCCCCCCCCCC)C(*)=O (repeat unit)
Ans: fulfilled

Q: Please give the result for *c1ccc(Oc2ccc(Oc3ccc(Oc4ccc(N5C(=O)c6ccc(Oc7ccc(Oc8ccc9c(c8)C(=O)N(*)C9=O)cc7)cc6C5=O)cc4)cc3)cc2)cc1 (repeat unit) too.
Ans: not fulfilled

Q: Okay, and *C(=O)Nc1ccc(Oc2ccc(C3(c4ccc(Oc5ccc(NC(=O)c6ccc7c(c6)C(=O)N(c6cccc(N8C(=O)c9ccc(*)cc9C8=O)c6)C7=O)cc5)cc4)NC(=O)c4ccccc43)cc2)cc1 (repeat unit) ?
Ans: not fulfilled

Q: Further, for *c1ccc(OCCN(CCOc2ccc(-c3cc(-c4ccccc4)c4cc(Oc5ccc6nc(*)cc(-c7ccccc7)c6c5)ccc4n3)cc2)c2ccc(C(C#N)=C(C#N)C#N)cc2)cc1 (repeat unit) ?
Ans: fulfilled

Q: Also *CCN(CCOC(=O)Nc1ccc(C)c(NC(=O)O*)c1)c1ccc(/N=N/c2ccc([N+](=O)[O-])cc2C)cc1 (repeat unit) ?
Ans: fulfilled

Q: Would you kindly repeat that for *c1ccc(Oc2ccc(-n3c(=O)c4c(Oc5ccc(OC)cc5)c5c(=O)n(*)c(=O)c5c(Oc5ccc(OC)cc5)c4c3=O)cc2)cc1 (repeat unit) ?
Ans: not fulfilled

Q: Similarly, *CCCCCCNC(=O)c1ccc(C(=O)N*)c(Oc2ccccc2)c1 (repeat unit) ?
Ans: fulfilled

Q: Cool, now */C=C(\C#N)C(=O)OCCCCCCOC(=O)/C(C#N)=C/c1ccc2c(c1)c1cc(*)ccc1n2CCCCCCC (repeat unit)
Ans: fulfilled

Q: What about this molecule? *CC(C)(CC)COC(=O)c1ccc(C(=O)O*)cc1 (repeat unit)
Ans: fulfilled
